- experiment summary: Photochromic response on optical bench (lambda max, sensitivity, saturation optical density, bleach rate) of naphthopyrans imbibed into test square polymerizates
- Type: physicochemical
- setup conditions: imbibed into diethylene glycol bis(allyl carbonate) composition; activated form
assay endpoint: LAMBDA MAX of the activated (colored) form in the visible spectrum
Don't forget the unit after the number, please.

Ask: What measured LAMBDA MAX of the activated (colored) form in the visible spectrum goes with CCOC(=O)COc1c(C(=O)OC)c2c(c3ccccc13)OC(c1ccc(OC)cc1)(c1ccc3c(c1)CC(C)O3)C=C2 (stereo not shown) ?
Result: 517 nm

Ask: Try this compound too: COC(=O)Oc1c(C(=O)OC)c2c(c3ccccc13)OC(c1ccc(C)cc1)(c1ccc(C)cc1)C=C2
Result: 482 nm

###

- experiment summary: Photochromic response on optical bench (lambda max, sensitivity, saturation optical density, bleach rate) of naphthopyrans imbibed into test square polymerizates
- Format: physicochemical
- setup conditions: first five (5) seconds of UV exposure, expressed on a per minute basis; diethylene glycol bis(allyl carbonate); 75° F. (23.9° C.)
Each item that follows carries a reported Δ OD/Min SENSITIVITY.

Ask: What measured Δ OD/Min SENSITIVITY goes with COC(=O)c1c2c(c3ccccc3c1OC)OC(c1ccc(OC)cc1)(c1ccc(OC)cc1)C=C2 [Example 2] ?
Result: 0.81 Δ OD/Min

###

Each item that follows carries a reported BLEACH RATE T1/2.
- experiment summary: Photochromic response on optical bench (lambda max, sensitivity, saturation optical density, bleach rate) of naphthopyrans imbibed into test square polymerizates
- Assay type: physicochemical
- setup conditions: Table 2 comparison; time for absorbance to reach one half the highest absorbance after removal of activating light; 75° F., 23.9° C.
- Experimental: Testing was done with selected photochromic naphthopyrans incorporated into test square polymerizates by one of two different imbibition processes. The test square polymerizates were prepared from a diethylene glycol bis(allyl carbonate) composition and measured 1/8 inch (0.3 centimeters)×2 inches (5.1 centimeters)×2 inches (5.1 centimeters). […]
The reply should contain only the number, in min.

Consider the worked cases shown below.
molecule: C1=CC2(Oc3c1ccc1ccccc31)C1CC3CC(C1)CC2C3 (stereo not shown) [Comparative Example 3, reference compound]
BLEACH RATE T1/2 [min]: 3.75
//
molecule: COC(=O)c1c2c(c3ccccc3c1OC(C)=O)OC(c1ccc(OC)cc1)(C(C)(C)C)C=C2 (stereo not shown)
BLEACH RATE T1/2 [min]: 7.22

Ask: What measured BLEACH RATE T1/2 goes with Cc1cc2ccccc2c2c1C=CC(c1ccccc1)(c1ccccc1)O2 [Comparative Example 2, reference compound] ?
Result: 10.7

Ask: Try this molecule too: COC(=O)c1c2c(c3ccccc3c1OC(C)=O)OC(c1ccccc1)(c1ccccc1)C=C2
Result: 3.67

Ask: Try this molecule too: COC(=O)c1c2c(c3ccccc3c1OC)OC1(C=C2)C2CC3CC(C2)CC1C3 (stereo not shown)
Result: 1.63

###

- experiment summary: Photochromic response on optical bench (lambda max, sensitivity, saturation optical density, bleach rate) of naphthopyrans imbibed into test square polymerizates
- Assay type: physicochemical
- setup conditions: imbibed into diethylene glycol bis(allyl carbonate) composition; activated form
assay endpoint: LAMBDA MAX of the activated (colored) form in the visible spectrum (nm)
The reply should contain only the number, in nm.

Consider the worked cases shown below.
molecule: COC(=O)c1c2c(c3ccccc3c1OCC#N)OC(c1ccccc1)(c1ccc(OC)cc1)C=C2 (centres unmarked)
result unit: nm
numeric readout: 494
--
molecule: COC(=O)c1c2c(c3cc(OC)ccc3c1C)OC(c1ccc(OC)cc1)(c1ccc(OC)cc1)C=C2
result unit: nm
numeric readout: 522
--
molecule: COC(=O)c1c2c(c3ccccc3c1C)OC(c1ccc(OC)cc1)(c1ccc(OC)cc1)C=C2
result unit: nm
numeric readout: 476
--
molecule: COC(=O)c1c2c(c3ccccc3c1O)OC(c1ccc(OC)cc1)(c1ccc(OC)cc1)C=C2
result unit: nm
numeric readout: 497
--
molecule: COC(=O)c1c2c(c3ccccc3c1OC(C)=O)OC(c1cccc(C(F)(F)F)c1)(c1cccc(C(F)(F)F)c1)C=C2
result unit: nm
numeric readout: 455
--
molecule: COC(=O)c1c2c(c3ccccc3c1OC)OC(c1ccc(OC)cc1)(c1ccc(OC)cc1)C=C2
result unit: nm
numeric readout: 510

Ask: What measured LAMBDA MAX of the activated (colored) form in the visible spectrum goes with CCC(=O)Oc1c(C(=O)OC)c2c(c3ccccc13)OC(c1ccccc1)(c1ccccc1)C=C2 ?
Result: 470

Ask: Try this molecule too: CCOC(=O)COc1c(C(=O)OC)c2c(c3ccccc13)OC(c1ccc(OC)cc1)(c1ccc(OC)cc1)C=C2
Result: 508

###

- experiment summary: Photochromic response on optical bench (lambda max, sensitivity, saturation optical density, bleach rate) of naphthopyrans imbibed into test square polymerizates
- Assay type: physicochemical
- setup conditions: first five (5) seconds of UV exposure, expressed on a per minute basis; diethylene glycol bis(allyl carbonate); 75° F. (23.9° C.)
Each item that follows carries a reported Δ OD/Min SENSITIVITY.

Consider the worked cases shown below.
compound: CCC(=O)Oc1c(C(=O)OC)c2c(c3ccccc13)OC(c1ccccc1)(c1ccccc1)C=C2
Δ OD/Min SENSITIVITY: 0.39 Δ OD/Min

compound: COC(=O)c1c2c(c3ccccc3c1O)OC(c1ccc(OC)cc1)(c1ccc(OC)cc1)C=C2
Δ OD/Min SENSITIVITY: 0.47 Δ OD/Min

compound: COC(=O)Oc1c(C(=O)OC)c2c(c3ccccc13)OC(c1ccc(C)cc1)(c1ccc(C)cc1)C=C2
Δ OD/Min SENSITIVITY: 0.32 Δ OD/Min

compound: CCOC(=O)COc1c(C(=O)OC)c2c(c3ccccc13)OC(c1ccc(OC)cc1)(c1ccc(OC)cc1)C=C2
Δ OD/Min SENSITIVITY: 0.79 Δ OD/Min

compound: COC(=O)c1c2c(c3cc(OC)ccc3c1C)OC(c1ccc(OC)cc1)(c1ccc(OC)cc1)C=C2
Δ OD/Min SENSITIVITY: 0.58 Δ OD/Min

compound: COC(=O)c1c2c(c3ccccc3c1OC(C)=O)OC(c1cccc(C(F)(F)F)c1)(c1cccc(C(F)(F)F)c1)C=C2
Δ OD/Min SENSITIVITY: 0.15 Δ OD/Min

compound: CCOC(=O)COc1c(C(=O)OC)c2c(c3ccccc13)OC(c1ccc(OC)cc1)(c1ccc3c(c1)CC(C)O3)C=C2 (centres unmarked)
Δ OD/Min SENSITIVITY: 0.83 Δ OD/Min

Ask: What measured Δ OD/Min SENSITIVITY goes with COC(=O)c1c2c(c3ccccc3c1C)OC(c1ccc(OC)cc1)(c1ccc(OC)cc1)C=C2 ?
Result: 0.63 Δ OD/Min
